Provide the reported ED50 of each item.
# Tested on: Rattus norvegicus
# assay-name: Antagonist activity in rat tail flick assay by subcutaneous administration
# Assay type: functional
Give bare numbers, in µM/kg.

>>> value("C[C@H]1C[C@H]2C3Cc4ccc(O)cc4C2(CCN3C)CC1=O (stereo in doubt; 7C a)")
1.82
>>> value("C[C@@H]1C[C@@H]2C3Cc4ccc(O)cc4C2(CCN3C)CC1=O (stereo in doubt; 7T a)")
1.09
>>> value("C[C@H]1C[C@H]2C3Cc4ccc(O)cc4C2(CCN3C)CC1=O (stereo in doubt; 7C)")
70

Now for another entry.
Ask: # lookup: ED50 of COc1ccc2c(c1)C13CCN(C)C(C2)[C@@H]1C[C@H](C)C(=O)C3 (stereo in doubt; 6C a)
Result: 1.6
